Please respond with reported IC50 for every item in the list.
# testedTarget: UniProt Q194T2
# Sequence (Q194T2 whole entry): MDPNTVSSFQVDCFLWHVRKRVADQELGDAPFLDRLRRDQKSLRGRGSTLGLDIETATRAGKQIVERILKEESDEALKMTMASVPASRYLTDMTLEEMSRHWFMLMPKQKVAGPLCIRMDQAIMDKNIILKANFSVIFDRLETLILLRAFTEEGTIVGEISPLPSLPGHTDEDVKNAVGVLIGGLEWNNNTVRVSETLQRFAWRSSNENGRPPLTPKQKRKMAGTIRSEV
# Type: functional, Influenza A virus (A/California/07/2009(H1N1))
Activity calls are given as the source filed them.

Use the examples below as a reference point.
COc1cc(/C=C2\SC(=O)N(Cc3ccc(Cl)cc3)C2=O)cc([N+](=O)[O-])c1O : 26.9 µM (active)
CCOC(=O)C1=C(c2ccccc2)N=C(N)NC1c1ccc(OCc2ccc(C(=O)OC)cc2)cc1 (stereo unspecified) : 62.3 µM (active)
CCOc1ccc(CNc2ccc(N3CCN(Cc4ccccc4)CC3)cc2)cc1 : 49.6 µM (active)
Cc1cc(C)cc(NC(=S)NC2CC3CCCC(C2)N3Cc2cccs2)c1 (stereo unspecified) : > 100 µM (active)
NS(=O)(=O)c1ccc(N=Nc2ccc(O)c3ncccc23)cc1 : 7.62 µM (active)

Input: Entry under review: "Cc1ccc2c(c1)-c1c(ssc1=S)C(C)(C)N2C(=O)CSC1=NCCS1" . Reported IC50?
Output: 24.9 µM (active)

---

# testedTarget: Replicative DNA helicase DnaB (Mycobacterium tuberculosis)
# protocolDescription: DnaB intein splicing inhibitors, dose response, biochemical, cell-free fluorescence (AID 449749)
# Format: functional
Active and inactive are the calls of the source.
The reply should name one outcome from TRUE for active, FALSE for inactive

Reference set (6 entries):
Cc1ccc(S[C@@H](CCN2CC[C@H](C)CCC2=O)c2ccccc2)cc1 : TRUE
O=C(O)c1cccc(Nc2cc(Cl)c3nonc3c2[N+](=O)[O-])c1 : TRUE
CCOC(=O)C1=C(c2ccccc2)O/C(=C(/C#N)C(F)(F)F)S1 : FALSE
CC1=NN(c2cccc([N+](=O)[O-])c2)C(=O)C1 : TRUE
Cc1ccc2c(c1)-c1c(ssc1=S)C(C)(C)N2C(=O)CSC1=NCCS1 : TRUE
CCOc1ccc(S(=O)(=O)NCc2cccnc2)cc1C : FALSE

Input: Status in this test for "CC1(CC(=O)N/N=C/c2ccc(OCc3ccc(Cl)cc3Cl)cc2)OCCCO1" ?
Output: TRUE

Input: And the next one, CCOC(=O)C1=C(c2ccccc2)N=C(N)NC1c1ccc(OCc2ccc(C(=O)OC)cc2)cc1 (stereo not given) ?
Output: TRUE

Input: And the next one, CC1(C)CC2=Nc3nn(-c4ccccc4)c(O)c3C(c3ccc4c(c3)OCO4)C2=C(O)C1 (stereo not given) ?
Output: TRUE

---

Please respond with reported EC50 for every item in the list.
# protocolDescription: cells
# Assay type: functional, cell-based
Activity calls are given as the source filed them.

Batch request: EC50 for each of the following compounds.
1. CC(=O)c1cccc(NC(=O)CN(C)S(=O)(=O)c2cccc3nsnc23)c1
2. Cn1c(SCC(=O)c2ccccc2)nnc1-c1ccco1
3. CCC(=O)n1nc(NCc2ccc(OC)c(OC)c2)nc1NCc1ccc(OC)c(OC)c1
4. CN(C(=O)COC(=O)c1ccc(F)c(S(=O)(=O)N2CCOCC2)c1)C1CCS(=O)(=O)C1 (stereo unspecified)

Output:
1. > 350 µM (not active)
2. > 350 µM (not active)
3. > 350 µM (not active)
4. > 350 µM (not active)

Batch request: EC50 for each of the following compounds.
1. Oc1ccc(/C=N/Nc2ncc(Br)cn2)c(O)c1
2. O=c1c2ccccc2nc2c3ccccc3c(NCCN3CCOCC3)nn12

Output:
41.1 µM (active)
> 350 µM (not active)

---

# testedTarget: Streptokinase A (Streptococcus pyogenes serotype M1)
# Sequence (P10520 whole entry): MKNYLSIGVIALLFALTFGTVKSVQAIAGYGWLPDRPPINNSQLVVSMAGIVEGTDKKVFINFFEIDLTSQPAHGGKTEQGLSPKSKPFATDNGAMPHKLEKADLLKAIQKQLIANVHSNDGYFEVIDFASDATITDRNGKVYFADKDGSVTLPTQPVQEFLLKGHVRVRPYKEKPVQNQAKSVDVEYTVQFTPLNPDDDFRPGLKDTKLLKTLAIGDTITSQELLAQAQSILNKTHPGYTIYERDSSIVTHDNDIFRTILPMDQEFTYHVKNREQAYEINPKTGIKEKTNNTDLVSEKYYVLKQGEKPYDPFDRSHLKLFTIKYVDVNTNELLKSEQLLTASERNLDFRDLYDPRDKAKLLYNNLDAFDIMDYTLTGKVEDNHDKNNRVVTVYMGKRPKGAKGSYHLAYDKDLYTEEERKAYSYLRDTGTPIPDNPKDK
# protocolDescription: viability-normalized secreted streptokinase activity reduction – plasminogen activation absorbance, OD405, dose response (AID 1914);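 also: secreted streptokinase activity via plasminogen activation per viability signal from cell pellet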
# Type: functional, Streptococcus pyogenes M1 GAS
The source made the active and inactive calls.
assayMetric: EC50

Use the examples below as a reference point.
O=C(c1ccccc1)c1cc2ccc(O)cc2oc1=O : > 150 µM (not active)
COc1cccc(N2C(=O)C3NN=C(C(=O)CN4C(=O)c5ccccc5C4=O)C3C2=O)c1 (configuration not stated) : > 150 µM (not active)
CC1CCN(c2ccccc2NC(=O)c2cc3ccccc3o2)CC1 : 25.2 µM (active)
Cc1cc(C)c(OCC(=O)Nc2ccccc2N2CCCCC2)c(C)c1 : 4.09 µM (active)
COc1ccc(NC2=NN=C(c3c(C)[nH]c4ccccc34)CS2)cc1 : > 150 µM (not active)
Cc1nn(-c2ccccc2)c(C)c1/C=N/Nc1nc2ccccc2[nH]1 : > 150 µM (not active)
O=C(CSc1nc2ccccc2c(=O)n1NC(=O)c1ccccc1)c1ccc(Cl)cc1 : 106 µM (active)
CCCCC(CC)C(=O)Oc1ccc(O)c(C(C)(C)C)c1 (configuration not stated) : 4.96 µM (active)

Batch request: EC50 for each of the following compounds.
1. Cc1ccccc1/C=N/Nc1nc2ccccc2[nH]1
2. FC(F)(F)c1cccc(NC(=S)Nc2ccc(Cl)c(Cl)c2)c1
3. CCOC(=O)N1CCC(N2Cc3cccc(C(=O)Nc4ccc(F)cc4)c3C2=O)CC1

Output:
1: > 150 µM (not active); 2: > 150 µM (not active); 3: > 150 µM (not active)

---

Please respond with reported IC50 for every item in the list.
# testedTarget: Dual specificity protein phosphatase 6 (Rattus norvegicus)
# Sequence (Q64346 whole entry): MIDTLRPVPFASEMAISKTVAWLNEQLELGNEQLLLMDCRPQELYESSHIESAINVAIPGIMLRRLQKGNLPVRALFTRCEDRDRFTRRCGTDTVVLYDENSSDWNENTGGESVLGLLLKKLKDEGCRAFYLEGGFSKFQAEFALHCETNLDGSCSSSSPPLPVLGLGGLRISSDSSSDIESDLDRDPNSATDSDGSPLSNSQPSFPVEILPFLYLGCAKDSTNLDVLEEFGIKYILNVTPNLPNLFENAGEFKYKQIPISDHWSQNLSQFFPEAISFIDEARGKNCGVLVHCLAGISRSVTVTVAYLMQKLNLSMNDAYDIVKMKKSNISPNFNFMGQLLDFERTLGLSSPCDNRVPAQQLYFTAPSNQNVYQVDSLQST
# protocolDescription: inhibition of rat DUSP6 enzyme activity – biochemical, in vitro, primary screen (AID 425)

Use the examples below as a reference point.
COC(=O)c1ccccc1NC(=O)Nc1cc(C)cc(C)n1 : > 100 µM (not active)
COc1cc(/C=C2\SC(=O)N(Cc3ccc(Cl)cc3)C2=O)cc([N+](=O)[O-])c1O : > 158 µM (not active)
O=C(c1ccc(-c2ccccc2)cc1)N1CCN(Cc2ccccn2)CC1 : > 100 µM (not active)

Turning now to a further record.
Input: Entry under review: "NC(=O)C1(N2CCCCC2)CCN(C(=S)Nc2ccc(S(N)(=O)=O)cc2)CC1" . Reported IC50?
Output: > 158 µM (not active)

---

# testedTarget: Cytochrome P450 2C19 (Homo sapiens, UniProt P33261)
# Sequence (P33261 whole entry): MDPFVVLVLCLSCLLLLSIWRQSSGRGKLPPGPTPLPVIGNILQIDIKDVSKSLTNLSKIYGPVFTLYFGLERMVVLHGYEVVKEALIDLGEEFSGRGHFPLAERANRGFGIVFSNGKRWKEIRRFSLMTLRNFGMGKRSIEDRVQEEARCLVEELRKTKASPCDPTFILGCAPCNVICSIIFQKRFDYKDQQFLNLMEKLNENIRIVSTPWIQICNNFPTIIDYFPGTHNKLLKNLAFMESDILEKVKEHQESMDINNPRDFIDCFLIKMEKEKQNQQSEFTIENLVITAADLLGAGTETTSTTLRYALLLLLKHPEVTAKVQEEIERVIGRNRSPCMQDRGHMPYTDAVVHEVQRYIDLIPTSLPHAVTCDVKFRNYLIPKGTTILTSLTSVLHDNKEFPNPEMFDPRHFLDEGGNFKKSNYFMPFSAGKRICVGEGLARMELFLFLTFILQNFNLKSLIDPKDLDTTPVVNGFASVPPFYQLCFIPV
# protocolDescription: Cytochrome panel assay with activity outcomes. Panel member name: p450-cyp2c19 Compounds with AC50 equal or less than 10 uM are considered active
# Format: functional
# reportedConditions: read-out: AC50
Please respond with reported AC50 for every item in the list.

Use the examples below as a reference point.
O=C(NCc1nnc(S)n1-c1ccccc1)c1ccc(S(=O)(=O)N2CCOCC2)cc1 : 25.1 µM (inconclusive)
Cc1cc(NC(=O)c2ccccc2Cl)no1 : 14.1 µM (inconclusive)

Batch request: AC50 for each of the following compounds.
1. CCOC(=O)C(NC(=O)CC)(Nc1sc2c(c1C(=O)OC)CCN(C)C2)C(F)(F)F (configuration not stated)
2. Cc1cc(C)cc(NC(S)=NC2CC3CCC(C2)N3Cc2ccco2)c1 (configuration not stated)
3. COc1ccc(/C=C/C(=O)c2ccoc2)cc1
4. O=C(CSc1ccc(Cl)cc1)Nc1ccc(N2CCN(C(=O)c3ccc(Cl)cc3)CC2)cc1
5. Nc1nc(N)c(/N=N\c2ccc(C(=O)O)c(O)c2)c(N)n1
6. COC(=O)[C@H]1C[C@@H]1[C@H](NC(=O)c1cc(C)nn1C)c1ccccc1
7. O=C(c1cccs1)N1CCN(C(=O)C(c2ccccc2)c2ccccc2)CC1
8. O=C(CSc1nc2ccccc2c(=O)n1NC(=O)c1ccccc1)c1ccc(Cl)cc1

Output:
1. 2.51 µM (inconclusive)
2. 35.5 µM (inconclusive)
3. 14.1 µM (inconclusive)
4. 14.1 µM (inconclusive)
5. 0.631 µM (inconclusive)
6. 15.8 µM (inconclusive)
7. 25.1 µM (inconclusive)
8. 2.24 µM (inconclusive)

Batch request: AC50 for each of the following compounds.
1. NCCSc1nc(-c2ccccc2)c(-c2ccccc2)o1
2. Cc1cccc(Nc2ccccc2C(=O)OCC(=O)N(C)C2CCS(=O)(=O)C2)c1C (configuration not stated)

Output:
1. 0.00794 µM (inconclusive)
2. 28.2 µM (inconclusive)

---

# testedTarget: Cytochrome P450 3A4 (Homo sapiens);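 also: CYP3A4 tested as one member of a cytochrome P450 panel screen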
# Sequence (P08684 whole entry): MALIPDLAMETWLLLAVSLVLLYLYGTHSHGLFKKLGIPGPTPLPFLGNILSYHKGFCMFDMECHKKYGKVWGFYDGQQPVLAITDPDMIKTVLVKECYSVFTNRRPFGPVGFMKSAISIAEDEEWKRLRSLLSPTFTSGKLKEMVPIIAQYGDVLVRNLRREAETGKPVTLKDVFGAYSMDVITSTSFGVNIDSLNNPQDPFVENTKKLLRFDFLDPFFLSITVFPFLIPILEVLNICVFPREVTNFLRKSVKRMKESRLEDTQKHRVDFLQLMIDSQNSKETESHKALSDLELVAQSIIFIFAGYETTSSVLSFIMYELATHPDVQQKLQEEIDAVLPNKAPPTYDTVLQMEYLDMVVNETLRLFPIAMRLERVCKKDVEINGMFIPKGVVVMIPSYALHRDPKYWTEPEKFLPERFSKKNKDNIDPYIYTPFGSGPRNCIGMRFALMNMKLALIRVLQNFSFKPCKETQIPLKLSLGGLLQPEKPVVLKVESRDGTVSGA
assayMetric: AC50

Use the examples below as a reference point.
O=C(CSc1nc(-c2ccccc2)nc2ccccc12)Nc1nccs1 : 1 µM (inconclusive)
COc1ccc(C(OCCN2CCC[C@@H](C(=O)O)C2)(c2ccc(OC)cc2)c2ccc(OC)cc2)cc1 : 31.6 µM (inconclusive)
Cc1cccc(Nc2ccccc2C(=O)OCC(=O)N(C)C2CCS(=O)(=O)C2)c1C (stereo not given) : 28.2 µM (inconclusive)
O=S(=O)(c1ccccc1)N1CCCC1c1nc2ccccc2s1 (stereo not given) : 20 µM (inconclusive)

Input: Entry under review: "O=C(NCc1nnc(S)n1-c1ccccc1)c1ccc(S(=O)(=O)N2CCOCC2)cc1" . Reported AC50?
Output: 31.6 µM (inconclusive)

---

# testedTarget: Histone-lysine N-methyltransferase NSD2 (Homo sapiens)
# Sequence (O96028 whole entry): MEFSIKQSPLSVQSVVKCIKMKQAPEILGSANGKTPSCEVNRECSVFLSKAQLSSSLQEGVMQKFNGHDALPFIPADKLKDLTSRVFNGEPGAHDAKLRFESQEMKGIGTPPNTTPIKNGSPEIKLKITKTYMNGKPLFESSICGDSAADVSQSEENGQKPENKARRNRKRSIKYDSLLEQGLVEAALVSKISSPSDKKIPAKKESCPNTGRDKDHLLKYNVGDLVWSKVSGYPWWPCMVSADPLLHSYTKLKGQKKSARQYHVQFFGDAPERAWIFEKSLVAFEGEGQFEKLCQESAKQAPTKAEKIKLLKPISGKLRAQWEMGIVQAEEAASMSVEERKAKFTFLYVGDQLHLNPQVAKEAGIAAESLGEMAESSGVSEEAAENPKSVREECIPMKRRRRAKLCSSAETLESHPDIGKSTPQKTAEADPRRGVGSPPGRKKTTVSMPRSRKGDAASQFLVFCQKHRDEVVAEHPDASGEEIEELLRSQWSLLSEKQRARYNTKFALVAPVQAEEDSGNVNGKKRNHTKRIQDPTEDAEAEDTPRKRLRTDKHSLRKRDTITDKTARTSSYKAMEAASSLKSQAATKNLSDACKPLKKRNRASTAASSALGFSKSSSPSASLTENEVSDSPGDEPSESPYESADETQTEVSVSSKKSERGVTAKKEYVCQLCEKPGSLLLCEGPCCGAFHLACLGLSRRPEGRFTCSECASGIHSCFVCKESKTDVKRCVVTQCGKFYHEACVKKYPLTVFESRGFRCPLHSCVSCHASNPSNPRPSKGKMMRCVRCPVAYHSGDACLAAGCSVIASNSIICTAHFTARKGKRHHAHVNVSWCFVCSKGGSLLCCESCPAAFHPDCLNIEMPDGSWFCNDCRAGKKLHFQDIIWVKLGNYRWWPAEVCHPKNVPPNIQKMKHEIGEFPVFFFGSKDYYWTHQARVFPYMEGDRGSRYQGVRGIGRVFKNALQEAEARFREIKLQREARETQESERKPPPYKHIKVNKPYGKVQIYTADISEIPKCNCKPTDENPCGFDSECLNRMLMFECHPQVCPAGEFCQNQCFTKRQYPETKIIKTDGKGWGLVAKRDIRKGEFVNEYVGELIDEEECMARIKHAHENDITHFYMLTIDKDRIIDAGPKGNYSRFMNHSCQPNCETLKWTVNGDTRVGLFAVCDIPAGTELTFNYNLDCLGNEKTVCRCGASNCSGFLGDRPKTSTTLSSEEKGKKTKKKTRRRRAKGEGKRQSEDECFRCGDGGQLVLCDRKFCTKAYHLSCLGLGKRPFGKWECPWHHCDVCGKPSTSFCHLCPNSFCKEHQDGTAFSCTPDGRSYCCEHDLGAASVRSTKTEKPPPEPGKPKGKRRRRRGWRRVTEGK
# Type: biochemical
Calls of active or inactive are those of the source.
The reply should name one outcome from TRUE = active, FALSE = inactive

Cc1cc(C=O)c(C)n1-c1ccc(Cl)c(C(=O)O)c1 : TRUE

Input: Status in this test for "CCN(CC)CCCNc1ncnc2scc(-c3ccc(F)cc3)c12" ?
Output: FALSE

Input: And the next one, "Cc1ccc(C)c(N2C(=N)S/C(=C\c3ccc(-c4ccccc4C(=O)O)o3)C2=O)c1" ?
Output: TRUE

Input: And the next one, "C=CCNCCCCOc1ccccc1" ?
Output: FALSE
